Origin of measurements: patent US20230416248A1

Target: BRM (Homo sapiens)
Construct: made in house; host or cells: High Five insect cells
Sequence (P51531 whole entry): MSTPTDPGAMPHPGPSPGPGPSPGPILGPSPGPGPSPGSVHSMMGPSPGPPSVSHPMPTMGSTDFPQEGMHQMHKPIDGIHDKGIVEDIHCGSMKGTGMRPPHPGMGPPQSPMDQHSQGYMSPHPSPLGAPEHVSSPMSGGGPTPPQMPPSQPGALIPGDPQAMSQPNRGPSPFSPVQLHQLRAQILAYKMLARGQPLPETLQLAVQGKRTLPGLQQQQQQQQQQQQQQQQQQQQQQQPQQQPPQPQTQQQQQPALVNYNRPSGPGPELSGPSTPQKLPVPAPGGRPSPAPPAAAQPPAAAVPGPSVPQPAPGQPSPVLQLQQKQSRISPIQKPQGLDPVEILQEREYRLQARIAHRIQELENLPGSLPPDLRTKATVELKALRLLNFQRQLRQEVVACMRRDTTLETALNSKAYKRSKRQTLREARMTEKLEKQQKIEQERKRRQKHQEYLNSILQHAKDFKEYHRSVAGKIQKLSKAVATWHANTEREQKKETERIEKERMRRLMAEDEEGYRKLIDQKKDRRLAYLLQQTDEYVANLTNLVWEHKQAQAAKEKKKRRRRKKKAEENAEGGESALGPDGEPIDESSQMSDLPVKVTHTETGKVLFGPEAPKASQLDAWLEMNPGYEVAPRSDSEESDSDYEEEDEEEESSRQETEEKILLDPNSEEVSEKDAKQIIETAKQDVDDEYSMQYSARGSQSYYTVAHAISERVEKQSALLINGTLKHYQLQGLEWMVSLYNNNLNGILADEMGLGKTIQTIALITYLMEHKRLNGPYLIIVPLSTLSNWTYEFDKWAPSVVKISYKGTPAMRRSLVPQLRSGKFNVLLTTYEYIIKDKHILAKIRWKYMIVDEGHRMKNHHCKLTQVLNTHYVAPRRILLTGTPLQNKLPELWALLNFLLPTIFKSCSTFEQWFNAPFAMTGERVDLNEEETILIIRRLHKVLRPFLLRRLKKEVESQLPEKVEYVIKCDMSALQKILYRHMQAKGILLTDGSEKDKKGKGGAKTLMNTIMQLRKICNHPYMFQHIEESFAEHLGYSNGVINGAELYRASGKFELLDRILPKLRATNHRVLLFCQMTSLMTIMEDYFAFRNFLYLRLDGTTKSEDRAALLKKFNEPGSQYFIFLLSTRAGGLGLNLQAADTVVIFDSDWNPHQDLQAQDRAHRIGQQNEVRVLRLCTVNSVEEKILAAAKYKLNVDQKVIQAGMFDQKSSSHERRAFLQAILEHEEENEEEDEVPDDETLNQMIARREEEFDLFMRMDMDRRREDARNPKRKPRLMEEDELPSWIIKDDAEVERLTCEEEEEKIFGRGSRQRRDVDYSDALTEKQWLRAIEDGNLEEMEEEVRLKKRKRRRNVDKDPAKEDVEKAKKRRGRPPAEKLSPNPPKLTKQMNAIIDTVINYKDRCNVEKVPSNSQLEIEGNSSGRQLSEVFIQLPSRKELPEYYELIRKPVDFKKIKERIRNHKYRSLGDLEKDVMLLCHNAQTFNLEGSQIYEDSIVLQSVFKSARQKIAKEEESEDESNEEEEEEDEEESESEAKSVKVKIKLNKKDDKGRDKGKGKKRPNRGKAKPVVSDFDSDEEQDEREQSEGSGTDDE
Experiment: ATPase catalytic activity of BRM, ADP-Glo in vitro biochemical assay
Conditions: ATPase catalytic activity, ADP-Glo; 30 nM BRM, 400 μM ATP
MEASURED PROPERTY: IC50 (nM)

| COMPOUND | MEASURED PROPERTY | REPORTED RESULT |
| --- | --- | --- |
| CC1COCc2ccc(C(=O)NCc3cc4nc(-c5cccc(N6C[C@@H](C)O[C@@H](C)C6)n5)ccc4cn3)cc2S1(=O)=O (stereo partly drawn) | IC50 | 21.1 |

A = C[C@@H]1CN(c2cccc(-c3ccc4cnc([C@H](C)NC(=O)c5ccc6c(c5)S(=O)(=O)[C@@H](C)COC6)cc4n3)n2)C[C@H](C)O1
B = COC[C@H]1CCc2ccc(-c3ccc4cnc(CNC(=O)c5ccc6c(c5)S(=O)(=O)CCOC6)cc4n3)nc2N1C
input: Which value of IC50 is greater, the one for A or the one for B ? Respond using the label that marks the chosen record.
output: B
(B: 45.2 nM, A: 10.6 nM)

---

Target: BRG-1 (Homo sapiens, UniProt P51532)
Construct: made in house; host or cells: High Five insect cells
Sequence (P51532 whole entry): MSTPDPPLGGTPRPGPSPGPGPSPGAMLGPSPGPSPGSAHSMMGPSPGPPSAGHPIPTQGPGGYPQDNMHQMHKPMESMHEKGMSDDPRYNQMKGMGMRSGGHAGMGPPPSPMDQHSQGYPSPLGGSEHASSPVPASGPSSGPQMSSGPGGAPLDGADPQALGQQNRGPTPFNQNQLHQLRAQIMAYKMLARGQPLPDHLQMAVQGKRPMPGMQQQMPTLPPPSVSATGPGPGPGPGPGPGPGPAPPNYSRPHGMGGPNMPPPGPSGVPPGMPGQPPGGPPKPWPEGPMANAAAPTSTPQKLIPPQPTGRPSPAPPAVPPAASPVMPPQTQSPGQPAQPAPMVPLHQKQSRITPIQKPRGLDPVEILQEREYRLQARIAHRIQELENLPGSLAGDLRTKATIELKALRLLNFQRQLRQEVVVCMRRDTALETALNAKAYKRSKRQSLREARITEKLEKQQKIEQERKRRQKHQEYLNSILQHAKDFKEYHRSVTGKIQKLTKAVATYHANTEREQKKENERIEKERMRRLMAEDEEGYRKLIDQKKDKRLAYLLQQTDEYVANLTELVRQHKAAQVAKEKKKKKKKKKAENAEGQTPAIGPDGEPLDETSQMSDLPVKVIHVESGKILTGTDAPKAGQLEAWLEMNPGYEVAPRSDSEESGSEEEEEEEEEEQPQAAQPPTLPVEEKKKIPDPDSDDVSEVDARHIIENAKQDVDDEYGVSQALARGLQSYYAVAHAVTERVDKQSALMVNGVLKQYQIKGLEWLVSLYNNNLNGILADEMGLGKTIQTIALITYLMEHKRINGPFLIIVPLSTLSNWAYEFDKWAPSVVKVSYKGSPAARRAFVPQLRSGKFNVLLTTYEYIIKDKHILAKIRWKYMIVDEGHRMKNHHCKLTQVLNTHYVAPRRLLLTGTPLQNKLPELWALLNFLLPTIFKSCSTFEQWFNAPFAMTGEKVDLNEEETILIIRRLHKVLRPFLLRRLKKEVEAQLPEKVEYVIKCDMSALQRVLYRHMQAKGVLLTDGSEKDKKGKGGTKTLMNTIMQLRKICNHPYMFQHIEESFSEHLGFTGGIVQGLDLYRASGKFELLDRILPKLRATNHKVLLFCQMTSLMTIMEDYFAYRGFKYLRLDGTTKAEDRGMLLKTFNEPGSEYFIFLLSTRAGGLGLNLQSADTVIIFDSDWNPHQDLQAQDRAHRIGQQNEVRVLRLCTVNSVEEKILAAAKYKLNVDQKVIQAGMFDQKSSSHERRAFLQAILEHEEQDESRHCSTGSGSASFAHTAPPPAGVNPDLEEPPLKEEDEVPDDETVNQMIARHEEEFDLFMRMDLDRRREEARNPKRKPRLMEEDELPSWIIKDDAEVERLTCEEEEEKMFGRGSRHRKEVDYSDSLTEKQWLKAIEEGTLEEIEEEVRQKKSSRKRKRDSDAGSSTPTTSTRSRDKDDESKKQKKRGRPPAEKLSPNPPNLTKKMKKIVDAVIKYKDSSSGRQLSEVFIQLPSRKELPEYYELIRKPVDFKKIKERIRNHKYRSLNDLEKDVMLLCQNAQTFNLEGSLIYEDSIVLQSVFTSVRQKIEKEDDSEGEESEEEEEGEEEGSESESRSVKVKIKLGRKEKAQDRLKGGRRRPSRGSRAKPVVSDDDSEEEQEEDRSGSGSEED
Assay: ATPase catalytic activity of BRG-1, ADP-Glo in vitro biochemical assay
Settings: ADP-Glo ATPase assay, 30 nM BRG-1, 400 μM ATP; read-out: BRG1 IC50
pIC50: −log10 of the molar value.
MEASURED PROPERTY: pIC50

| COMPOUND | pIC50 |
| --- | --- |
| CS(=O)(=O)c1cc(C(=O)NCc2cc3nc(-c4cccc(N5CC[C@@H]6OCC[C@H]6C5)n4)ccc3cn2)ccc1Cl | 6.05 |

a = COc1ccc(-c2ccc3cnc(CNC(=O)c4ccc5c(c4)S(=O)(=O)CCOC5)cc3n2)nc1
b = CN(C)[C@@H]1CCN(c2cccc(-c3ccc4cnc(CNC(=O)c5ccc6c(c5)S(=O)(=O)CCOC6)cc4n3)n2)CC1(F)F
input: Between a and b , which one shows the smaller pIC50 number? Choose, then provide that item's label.
output: a

I = O=C(NCc1cc2cc(N3CCOc4ccc(C(F)F)nc43)ccc2cn1)c1ccc2c(c1)S(=O)(=O)CCOC2
II = C[C@@H]1CN(c2cccc(-c3ccc4cnc(CNC(=O)c5ccc6c(c5)S(=O)(=O)CCOC6)cc4n3)c2)C[C@H](C)O1
input: Param metric = pIC50; output whichever of I , II has the minimum value. Give the label of your selection.
output: I

---

Biological target: BRG-1 (Homo sapiens)
Construct: made in house; host or cells: High Five insect cells
Assay: ATPase catalytic activity of BRG-1, ADP-Glo in vitro biochemical assay
Conditions: ADP-Glo ATPase assay, 30 nM BRG-1, 400 μM ATP; read-out: BRG1 IC50
MEASURED PROPERTY: IC50 (nM)

Below, 6 compounds whose answers are already recorded.
| COMPOUND | REPORTED RESULT |
| --- | --- |
| CN1CCc2c(-c3ccc4cnc(CNC(=O)c5ccc6c(c5)S(=O)(=O)CCOC6)cc4n3)cccc21 [Compound 233] | 1080 |
| O=C(NCc1cc2nc(N3CC4CC4c4cccnc43)ccc2cn1)c1ccc2c(c1)S(=O)(=O)CCOC2 (centres unmarked) [Compound 855] | 3800 |
| O=C(NCc1cc2nc(-c3ccccc3OC3CC3)ccc2cn1)c1ccc2c(c1)S(=O)(=O)CCOC2 [Compound 232] | 410 |
| CN1CCN(c2cccc(-c3ccc4cnc(CNC(=O)c5ccc6c(c5)S(=O)(=O)CCOC6)cc4n3)n2)CC1 [Compound 144] | 1350 |
| O=C(NCc1cc2nc(-c3cccc4c3CCN4C3COC3)ccc2cn1)c1ccc2c(c1)S(=O)(=O)CCOC2 [Compound 198] | 967 |
| C[C@@H]1CN(c2cccc(-c3cnc4cnc(CNC(=O)c5ccc6c(c5)S(=O)(=O)[C@@H](C)COC6)cc4n3)n2)C[C@H](C)O1 [Compound 710] | 153 |

1 = COc1nn(C2COC2)cc1-c1ccc2cnc(CNC(=O)c3ccc4c(c3)S(=O)(=O)CCOC4)cc2c1 [Compound 261]
2 = COc1cccc(-c2ccc3cnc(CNC(=O)c4ccc5c(c4)S(=O)(=O)CCOC5)cc3n2)c1 [Compound 265]
3 = CN(C)c1nccc2c1CCCN2c1ccc2cnc(CNC(=O)c3ccc4c(c3)S(=O)(=O)CCOC4)cc2n1 [Compound 836]
4 = CS(=O)(=O)c1cc(F)cc(C(=O)NCc2cc3nc(-c4cncc(C5CC5)n4)ccc3cn2)c1 [Compound 295]
5 = [2H]C1([2H])Oc2ccc(C(=O)NCc3cc4nc(N5CCOc6ccc(C(F)F)nc65)ccc4cn3)cc2S(=O)(=O)C([2H])([2H])C1([2H])[2H] [Compound 818]
input: List by increasing IC50. Labels, ranked as asked.
output: 1, 3, 5, 2, 4
(1: 233 nM, 3: 651 nM, 5: 1680 nM, 2: 2400 nM, 4: 5000 nM)

a = CN(c1cccc(-c2ccc3cnc(CNC(=O)c4ccc5c(c4)S(=O)(=O)CCOC5)cc3n2)n1)[C@H]1CCOC1 [Compound 117]
b = O=C(NCc1cc2nc(-c3cccc(N4CC(C5(F)COC5)C4)n3)ccc2cn1)c1ccc2c(c1)S(=O)(=O)CCOC2 [Compound 797]
c = O=C(NCc1cc2nc(-c3cccc(N4CC5(C4)CC5(F)F)n3)ccc2cn1)c1ccc2c(c1)S(=O)(=O)CCOC2 [Compound 128]
d = O=C(NCc1cc2nc(-c3cccc(N4CCC4)n3)ccc2nn1)c1ccc2c(c1)S(=O)(=O)CCOC2 [Compound 57]
input: List from greatest to least IC50. Record the ranking as a list of labels in the requested order.
output: c, a, b, d
(c: 468 nM, a: 313 nM, b: 190 nM, d: 118 nM)
